- PROCEDURE_DETAILS: PO Dosing in Rats: plasma profile
- Format: in vivo, Male Sprague-Dawley Rats
- RUN_CONDITIONS: Sprague-Dawley, rat; analyte = dosed compound itself in plasma, PO 3 mg/kg, male rats
TEST_READOUT: Cmax (ng/mL)

1: C[C@H](NC(=O)CSc1ncc(Br)n1-c1ccc(C#N)c2ccccc12)C(=O)O [Example 8]
2: N#Cc1ccc(-n2c(Br)cnc2SCC(=O)NCC(=O)O)c2ccccc12 [Example 3]
3: CC(C)[C@H](NC(=O)CSc1ncc(Br)n1-c1ccc(C#N)c2ccccc12)C(=O)O [Example 9]
Consider the molecules listed above. Rank them by Cmax in ascending numerical order. Kindly provide the labels arranged according to the requested ordering.
3, 2, 1
(3: 25.8 ng/mL, 2: 56.6 ng/mL, 1: 110 ng/mL)
